Study system: BACE1 (Homo sapiens, UniProt P56817)
Sequence (P56817 46-501, species assumed): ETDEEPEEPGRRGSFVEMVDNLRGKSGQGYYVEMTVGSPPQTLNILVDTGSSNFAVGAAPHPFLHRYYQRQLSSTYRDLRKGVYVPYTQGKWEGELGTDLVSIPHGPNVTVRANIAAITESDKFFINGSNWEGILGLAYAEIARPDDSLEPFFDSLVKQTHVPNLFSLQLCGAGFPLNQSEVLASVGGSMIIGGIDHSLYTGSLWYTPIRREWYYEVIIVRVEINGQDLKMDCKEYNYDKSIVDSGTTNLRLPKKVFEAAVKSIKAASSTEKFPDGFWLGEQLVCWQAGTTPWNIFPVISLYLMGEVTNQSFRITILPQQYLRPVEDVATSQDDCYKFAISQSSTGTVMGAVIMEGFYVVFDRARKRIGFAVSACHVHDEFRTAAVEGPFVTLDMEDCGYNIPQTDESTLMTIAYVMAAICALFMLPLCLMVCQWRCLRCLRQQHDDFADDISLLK
Assay procedure: In Vitro BACE Cell-based Assay (HEK cell assay): Aβ40 in conditioned medium of cells stably expressing Amyloid Precursor Protein, sandwich ELISA
Stated conditions: HEK cell-based assay, Aβ40 in conditioned medium, IC50 class symbols; read-out: HEK cell assay
pIC50: −log10 of the molar value.
Property name: pIC50

Solved entries (count: 6):
COCC(=O)Nc1ccc2c(c1)[C@@]1(COC(N)=N1)c1cc(OCC(C)(C)C)ccc1O2: 6.00 to 7.00
N#Cc1ccc(-c2cc3c(cn2)Oc2ccc(-c4cccnc4F)cc2[C@@]32COC(N)=N2)cc1: > 7.00
NC1=N[C@@]2(CO1)c1cc(-c3cc(Cl)ccc3F)ccc1Oc1cnc(-c3cccnc3)cc12: > 7.00
NC1=N[C@@]2(CO1)c1cc(-c3cccnc3N3CCOCC3)ccc1Oc1cnc(Cl)cc12: < 5.30
Cn1cc(-c2cc3c(cn2)Oc2ccc(-c4cccnc4F)cc2[C@@]32COC(N)=N2)cn1: > 7.00
CC(C)(C#N)COc1cnc2c(c1)[C@]1(COC(N)=N1)c1cc(-c3cccnc3)ccc1O2: > 7.00

Now look at this one.
Quick one: pIC50 for `Cn1cc(-c2cccc(-c3ccc4c(c3)[C@@]3(COC(N)=N3)c3cc(-c5cnn(C)c5)ncc3O4)c2)cn1` ? 6.00 to 7.00

Source listed as patent US8426447B2.
